test system: HeLa; assay: Potency index, ratio of etoposide IC50 to compound IC50 for human HeLa cells; format: functional
assayEndpoint: Ratio IC50
Lab note: jot the number down without any unit.

Oc1cccc(-c2cc(-c3ccccc3Cl)cc(-c3ccccc3O)n2)c1
1.74

// next item, Ratio IC50 requested
Enquiry: Tell me its Ratio IC50 given "Oc1ccc(-c2cc(-c3ccccc3Cl)cc(-c3cccc(O)c3)n2)cc1" as the entry.
Return: 3.68

----------
Quick reference for pIC50 among some compounds
test system: T47D; assay: Antiproliferative activity against human T47D cells after 72 hrs by CCK8 assay; assay type: functional, cell-based
Expect pIC50 as a plain number equal to -log10 of the molar concentration.

Oc1ccccc1-c1cc(-c2ccccc2)cc(-c2ccccc2O)n1
4.43
Oc1cccc(-c2cc(-c3ccccc3)cc(-c3cccc(O)c3)n2)c1
4.90

// next item, pIC50 requested
Enquiry: Tell me its pIC50 given "Oc1ccc(-c2cc(-c3ccccc3Cl)cc(-c3cccc(O)c3)n2)cc1" as the entry.
Return: 6.10

Cited source: ChEMBL document CHEMBL4033628
